- Test system: BT-549 breast
- experimental_protocol: NCI tumour cell line growth inhibition, 48 h
measurement_kind: TGI (µM)

INSERT INTO assay_data (mol, comparative_sign, endpoint_value) VALUES
  ('Cc1cc(Nc2cc(N3CCN(C)CC3)nc(Sc3ccc(NC(=O)C4CC4)cc3)n2)n[nH]1', '>', 10),
  ('COC(=O)/C=C\C(C#N)(C#N)N=Cc1sccc1C', '=', 11.1),
  ('CC(C)(C)OC(=O)CN1CCN(CC(=O)N2CCN(C(=O)OCc3ccccc3)CC2)CCN(CC(=O)OC(C)(C)C)CCN(CC(=O)N2CCN(C(=O)OCc3ccccc3)CC2)CC1', '=', 14.5),
  ('C=CCN(c1cc(OC)c2[nH]c(C(=O)OCC)c(C)c2c1[N+](=O)[O-])S(C)(=O)=O', '=', 60.5);

====

- Tested on: RXF 393 renal
- experimental_protocol: NCI tumour cell line growth inhibition, 48 h; in the data active = GI50 below about 0.43 µM; inactive = the rest
Outcomes: t for active, f for inactive

INSERT INTO measurements (compound, discrete_label) VALUES
  ('CCOC(=O)c1ccc2c(c1)[n+](=O)c(C(C)=O)c(C(F)(F)F)n2[O-]', 'f'),
  ('Cc1c(C(N)=O)sc2c1c(=O)n(Cc1ccccc1)c1nnc(-c3ccc(Br)cc3)n21', 'f'),
  ('COc1ccc(N(/C=C/C(=O)C(F)(F)F)CC(=O)c2ccc(Cl)cc2)cc1', 'f'),
  ('O=c1oc2ccc(-c3ccc(F)cc3F)cc2c(=O)n1-c1ccc(Cl)c(C(F)(F)F)c1', 'f'),
  ('CC1=C(C)C2(O)C(=C(C)C1=O)/C(=C(/O)c1ccccc1)c1nc3ccccc3n12 (centres undefined)', 'f'),
  ('COc1cc(-n2ccnc2)cc(OC)c1OC', 'f'),
  ('O=C(NCCNc1nccc(-c2c(-c3cccc(O)c3)nc3sccn23)n1)c1ccccc1', 'f'),
  ('ClCc1cccc(CSc2ncnc3c2ncn3Cc2cccc(CCl)c2)c1', 'f'),
  ('COc1ccc(/C=C\c2cc(OC)c(OC)c(OC)c2)cc1OCC(=O)Nc1ccc2nc(C)sc2c1', 'f'),
  ('CN(C)c1ccc(/C=c2/c3ccccc3n3c2c2cc(F)ccc2[n+]3C)cc1', 'f'),
  ('Cc1ccc(-c2nc(-c3cn(C)c4ncccc34)cs2)cc1', 'f'),
  ('O=C(NCc1ccco1)c1cccc(NC2=C(Cl)C(=O)N(Cc3ccccc3)C2=O)c1', 'f'),
  ('CC(=O)c1cc(C(=O)c2ccc3c(c2)Sc2ccccc2N3)c2c(C)cccn12', 't'),
  ('CCOC(=O)/C=C/C(=O)[C@H](CC(C)C)NC(=O)[C@H](Cc1ccccc1)NC(=O)OCc1ccccc1', 'f');

====

- Tested on: UACC-257 melanoma
- experimental_protocol: NCI tumour cell line growth inhibition, 48 h
Each entry below carries its reported TGI.
measurement_kind: TGI

INSERT INTO assay_data (compound, tested_target, endpoint_value) VALUES
  ('CC1NC(=O)C2=C1C(N)=NC(=O)C2 (configuration not stated)', 'UACC-257 melanoma', '> 100 µM'),
  ('Nc1c2c(nc3ccccc13)-c1ccccc1NCCC2', 'UACC-257 melanoma', '28.3 µM'),
  ('CCS(=O)(=O)c1ccc(OC)c(Nc2ncc(-c3ccccc3Cl)o2)c1', 'UACC-257 melanoma', '> 25 µM'),
  ('CC(=O)c1cc(C(=O)c2ccc3c(c2)Sc2ccccc2N3)c2c(C)cccn12', 'UACC-257 melanoma', '> 100 µM'),
  ('CC(=O)N(O)Cc1ccccc1', 'UACC-257 melanoma', '> 100 µM'),
  ('COc1ccc2c3c1OC1C34CCN(C)C(C2)C4=CC(I)C1(OC)OC (configuration not stated)', 'UACC-257 melanoma', '26.9 µM'),
  ('CCCN1C(=O)/C(=C\c2ccc(OC)c(OC)c2)SC1=Nc1ccccc1', 'UACC-257 melanoma', '> 100 µM'),
  ('O=C(CC(=O)c1cccc(Cl)c1)c1cccc(Cl)c1', 'UACC-257 melanoma', '> 100 µM'),
  ('Cc1cn(-c2ccc(S(C)(=O)=O)cc2)c(-c2ccc(Cl)cc2)n1', 'UACC-257 melanoma', '> 100 µM'),
  ('COC(=O)/C=C\C(C#N)(C#N)N=Cc1sccc1C', 'UACC-257 melanoma', '23.3 µM'),
  ('CCn1c2c(c3ccccc31)C(c1ccccc1)CC1C(=O)N(c3ccccc3)C(=O)C21 (configuration not stated)', 'UACC-257 melanoma', '> 100 µM'),
  ('C=CCOC(=O)C1CCC(=O)N1C(=O)C(Cl)Cl (configuration not stated)', 'UACC-257 melanoma', '> 100 µM');

====

- System: MCF7 breast
- experimental_protocol: NCI tumour cell line growth inhibition, 48 h
measurement_kind: TGI (µM)

INSERT INTO assay_data (compound, tested_target, u, comparative_sign, endpoint_value) VALUES
  ('COc1ccc2c(c[n+](C)c3c4cc5c(cc4ccc23)OCO5)c1OC', 'MCF7 breast', 'µM', '=', 79.6),
  ('CCN1C[C@]2(COC)[C@H](O)C[C@H](OC)[C@]34C1[C@H]([C@H](OC)[C@H]23)[C@]1(OC(C)=O)[C@H]2[C@@H](OC(=O)c3ccccc3)[C@](O)(C[C@H]24)[C@@H](OC)[C@@H]1O', 'MCF7 breast', 'µM', '>', 100),
  ('O=C(NCc1ccco1)c1cccc(NC2=C(Cl)C(=O)N(Cc3ccccc3)C2=O)c1', 'MCF7 breast', 'µM', '>', 100),
  ('N#Cc1c(-c2ccc(Cl)cc2)c2c(N=Nc3c(O)ccc4ccccc34)[nH]nc2[nH]c1=O', 'MCF7 breast', 'µM', '=', 0.982),
  ('COc1ccc(C2C=C(c3ccc(Cl)cc3)N=C3SC=C(C)N32)c(Br)c1 (centres undefined)', 'MCF7 breast', 'µM', '=', 12.5),
  ('C=CCOc1ccccc1C1(O)c2ccccc2C2=NCCCN21 (centres undefined)', 'MCF7 breast', 'µM', '>', 100),
  ('O=[N+]([O-])/C(C(Cl)=C(Cl)Cl)=C(\N1CCCCC1)n1nnc2ccccc21', 'MCF7 breast', 'µM', '>', 69.4),
  ('O=C(/C=C/C12c3ccccc3C(c3ccccc31)C1C(=O)NC(=O)C12)c1ccc(Cl)cc1 (centres undefined)', 'MCF7 breast', 'µM', '=', 4.05),
  ('O=S(=O)(Nc1ccc(F)c(Cl)c1)c1ccc(-c2cnc(C3CC3)o2)cc1', 'MCF7 breast', 'µM', '=', 9.83),
  ('C=C(C)C(=O)O[C@@H]1C/C(C)=C\[C@H](OC(C)=O)C[C@](C)(O)/C=C2/OC(=O)C(COC(C)=O)=C21', 'MCF7 breast', 'µM', '>', 36.5),
  ('CC(=O)OC1CC[C@@]2(C)C(CC[C@]3(C)C2CC=C2[C@@H]4C(C)[C@H](C)CCC4(C)CCC23C)[C@@]1(C)C(=O)O (some centres undefined)', 'MCF7 breast', 'µM', '=', 25.8),
  ('COc1cc2ccc1OCc1cccc(n1)COc1ccc(cc1OC)C=NCCNCCNCCN=C2', 'MCF7 breast', 'µM', '>', 100),
  ('NC(=Nc1ccc(N)cc1)C(N)=Nc1ccc(N)cc1', 'MCF7 breast', 'µM', '>', 100),
  ('COc1cc(C2c3cc4c(cc3[C@@H](Oc3ccc(F)cc3)C3COC(=O)[C@H]23)OCO4)cc(OC)c1O (some centres undefined)', 'MCF7 breast', 'µM', '>', 58);

====

We begin with a simple list: items and their reported TGI.
- System: UACC-257 melanoma
- experimental_protocol: NCI tumour cell line growth inhibition, 48 h
measurement_kind: TGI (µM)

INSERT INTO results (compound, tested_target, u, comparative_sign, endpoint_value) VALUES
  ('CN1CCN(Cc2ccc3c(NNC(=O)c4ccccc4)nc4cc(F)ccc4n23)CC1', 'UACC-257 melanoma', 'µM', '=', 12.5),
  ('Cc1cccc(NC(=O)/C=C/c2ccc([N+](=O)[O-])cc2)c1', 'UACC-257 melanoma', 'µM', '>', 55.1),
  ('COc1c2c(cc3c1C1(O)Cc4ccc5c(c4C[N+]1(C)CC3)OCO5)OCO2 (stereo not drawn)', 'UACC-257 melanoma', 'µM', '>', 100),
  ('CN(C)c1cccc2c1C(=O)C=CC21CCc2ccc(N(C)C)c3c(N(C)C)ccc1c23 (stereo not drawn)', 'UACC-257 melanoma', 'µM', '=', 25.1),
  ('CO[C@@H]1C[C@H](OC(N)=O)[C@@H]2C=C[C@@H]3/C=C(C)/C=C/[C@@H](C)[C@H](/C(C)=C/[C@@H](C)NC(C)=O)OC(=O)/C=C/C=C(C)\C=C\[C@]3(C)[C@@H]2C1', 'UACC-257 melanoma', 'µM', '=', 0.0866),
  ('O=C(Nc1cccc2ccccc12)c1ccccc1', 'UACC-257 melanoma', 'µM', '>', 100),
  ('Cc1ccc(-c2nc(-c3cn(C)c4ncccc34)cs2)cc1', 'UACC-257 melanoma', 'µM', '=', 28),
  ('CNS(=O)(=O)OCC1OC(n2cnc3c(N)ncnc32)C(O)C1O (stereo not drawn)', 'UACC-257 melanoma', 'µM', '>', 100);
